# SYSTEM TESTED: EGFR L858R/T790M/C797S mutant (Homo sapiens (Human), UniProt P00533, C797S/L858R/T790M)
# Sequence (P00533 25-1210 T790M/C797S/L858R): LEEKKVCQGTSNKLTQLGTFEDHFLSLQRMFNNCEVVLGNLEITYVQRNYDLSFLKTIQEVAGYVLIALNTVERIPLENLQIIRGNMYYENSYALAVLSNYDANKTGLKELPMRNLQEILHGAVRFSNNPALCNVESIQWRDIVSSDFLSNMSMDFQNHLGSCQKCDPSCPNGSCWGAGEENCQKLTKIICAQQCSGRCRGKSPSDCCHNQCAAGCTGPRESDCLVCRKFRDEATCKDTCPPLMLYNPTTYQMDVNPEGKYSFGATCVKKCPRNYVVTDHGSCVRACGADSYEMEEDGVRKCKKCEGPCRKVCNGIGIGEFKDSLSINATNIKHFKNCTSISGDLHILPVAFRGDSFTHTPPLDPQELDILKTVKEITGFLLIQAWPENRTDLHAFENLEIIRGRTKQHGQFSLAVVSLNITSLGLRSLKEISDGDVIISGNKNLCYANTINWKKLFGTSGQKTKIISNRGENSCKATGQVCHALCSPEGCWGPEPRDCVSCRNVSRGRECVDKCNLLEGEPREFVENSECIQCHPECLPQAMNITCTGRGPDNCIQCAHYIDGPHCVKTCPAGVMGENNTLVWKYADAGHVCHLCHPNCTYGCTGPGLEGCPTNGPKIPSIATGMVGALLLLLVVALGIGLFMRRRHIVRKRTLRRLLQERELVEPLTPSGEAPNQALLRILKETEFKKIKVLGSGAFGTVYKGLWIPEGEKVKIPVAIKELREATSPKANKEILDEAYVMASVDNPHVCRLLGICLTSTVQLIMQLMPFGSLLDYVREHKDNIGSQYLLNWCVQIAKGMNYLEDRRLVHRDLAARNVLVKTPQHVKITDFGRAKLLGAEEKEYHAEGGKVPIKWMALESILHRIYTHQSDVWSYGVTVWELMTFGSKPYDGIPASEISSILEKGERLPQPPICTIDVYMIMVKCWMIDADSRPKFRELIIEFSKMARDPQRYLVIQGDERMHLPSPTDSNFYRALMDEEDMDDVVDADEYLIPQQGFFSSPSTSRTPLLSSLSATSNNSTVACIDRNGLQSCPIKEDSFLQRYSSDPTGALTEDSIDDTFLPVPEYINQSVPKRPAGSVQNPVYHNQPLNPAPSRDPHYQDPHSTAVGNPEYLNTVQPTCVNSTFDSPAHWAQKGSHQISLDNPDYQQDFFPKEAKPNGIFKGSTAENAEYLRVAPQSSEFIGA
# ASSAY PROCEDURE: HotSpot radiometric kinase assay, EGFR L858R/T790M/C797S mutant
# CONDITION CONTEXT: 10 μM ATP
QUANTITY MEASURED: IC50 (nM)
Reply with just the number (in nM).

I have this molecule here, "C[C@H]1CN(C)Cc2c(c(OC3CCN(S(C)(=O)=O)CC3)nn2CCO)/C=C/c2n[nH]c3ccc(cc23)-c2cnn(C)c2O1" , and I need its recorded IC50.
3.39

Consider next the molecule "CCOc1nn(CCO)c2c1/C=C/c1n[nH]c3ccc(cc13)-c1cnn(C)c1O[C@@H](C)CN(C(C)C)C2" in the same way.
0.46

Now this one: "Cc1nn(C[C@H](C)O)c2c1/C=C/c1n[nH]c3ccc(cc13)-c1cnn(C)c1O[C@@H](C)CN(C)C2"
0.75

---

Record set of IC50 for target or system CLK3 (Homo sapiens (Human)).
Reply numerically in nM, unit not repeated.

Fill blank: measured IC50 of the compound C[C@H]1CN(C)Cc2c(c(C#N)nn2C)/C=C/c2n[nH]c3ccc(cc23)-c2cnn(C)c2O1 [Example 159] is ____.
1000

And what about the compound CCOc1nn(C)c2c1/C=C/c1n[nH]c3cc(F)c(cc13)-c1cnn(C)c1OC1CCCN(C2)C1 (stereo in doubt) [Example 178] ?
61.8

Now the same for C[C@H]1CN(C)Cc2c(c(OCC#N)nn2C)/C=C/c2n[nH]c3ccc(cc23)-c2cnn(C)c2O1 [Example 163]
215

Same question for Cc1nn(C)c2c1/C=C/c1n[nH]c3ccc(cc13)-c1cnn(C)c1O[C@H]1CCCN(C2)C1 [Example 176] please.
1000

---

# SYSTEM TESTED: EGFR (D770_N771insNPG) (Homo sapiens (Human), UniProt P00533, INS770NPG)
# Sequence (P00533 other isoform, or with tags, fused parts or gaps del 1-668/ins NPG behind 770 limits assumed): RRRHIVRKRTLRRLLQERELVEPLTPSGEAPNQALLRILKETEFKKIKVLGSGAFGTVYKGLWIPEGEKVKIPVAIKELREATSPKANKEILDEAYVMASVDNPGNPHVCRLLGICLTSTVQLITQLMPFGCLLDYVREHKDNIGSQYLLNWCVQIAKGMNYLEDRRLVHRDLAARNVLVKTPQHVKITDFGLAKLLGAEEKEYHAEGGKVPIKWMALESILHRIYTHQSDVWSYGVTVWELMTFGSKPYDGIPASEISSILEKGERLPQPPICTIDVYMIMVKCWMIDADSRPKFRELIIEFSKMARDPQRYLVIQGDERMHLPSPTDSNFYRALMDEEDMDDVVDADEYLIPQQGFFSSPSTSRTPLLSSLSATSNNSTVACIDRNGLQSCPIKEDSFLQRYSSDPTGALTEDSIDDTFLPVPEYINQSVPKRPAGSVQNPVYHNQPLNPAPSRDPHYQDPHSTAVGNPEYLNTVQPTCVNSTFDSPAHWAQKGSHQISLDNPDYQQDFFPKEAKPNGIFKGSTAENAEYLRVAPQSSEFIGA
# ASSAY PROCEDURE: HotSpot radiometric kinase assay, EGFR (D770_N771insNPG)
# CONDITION CONTEXT: 10 μM ATP, read-out: EGFR (Δ770_N771insNPG) IC50
QUANTITY MEASURED: IC50

Param item = "C[C@H]1CN(C)Cc2c(c(OCC#N)nn2C)/C=C/c2n[nH]c3ccc(cc23)-c2cnn(C)c2O1" ; retrieve measured IC50.
52 nM

Try "Cc1c2c(nn1C[C@@H](C)O)CN(C)C[C@H](C)Oc1c(cnn1C)-c1ccc3[nH]nc(c3c1)/C=C/2" next.
383 nM

Moving on to "C[C@H]1CN(C)Cc2c(c(O[C@H]3CCN(S(C)(=O)=O)C3)nn2CCO)/C=C/c2n[nH]c3ccc(cc23)-c2cnn(C)c2O1"
300 nM

Try the compound "Cn1ncc2c1OCCCOc1nn3ccn(C)c(=O)c3c1/C=C/c1n[nH]c3ccc-2cc13"
> 1000 nM

---

# SYSTEM TESTED: EGFR (D770_N771insNPG) (Homo sapiens (Human), UniProt P00533, INS770NPG)
# ASSAY PROCEDURE: HotSpot radiometric kinase assay, EGFR (D770_N771insNPG)
# CONDITION CONTEXT: 10 μM ATP, read-out: EGFR (Δ770_N771insNPG) IC50
Field: IC50. Provide a value for each of the molecules that follow.

# input molecule: Cc1c2c(nn1[C@H]1CCOC[C@@H]1O)OCCCOc1c(cnn1C)-c1ccc3[nH]nc(c3c1)/C=C/2 (racemic) ; wanted: its IC50
> 1000 nM

Okay, and "Cn1ncc2c1OCCN1CC[C@@H](Oc3ccc(F)cc3/C=C/c3n[nH]c4ccc-2cc34)C1=O" ?
284 nM

Now give it for "CN(C)Cc1ccc2c(c1)O[C@@H]1CCN(CCOc3c(cnn3C)-c3ccc4[nH]nc(c4c3)/C=C/2)C1=O" too.
17.2 nM

Here is the next molecule: "CCOc1nn([C@@H](C)CO)c2c1/C=C/c1n[nH]c3cc(F)c(cc13)-c1cnn(C)c1O[C@@H](C)CN(CC)C2"
3.75 nM

Field entry: "CC(C)Oc1nn([C@@H](C)CO)c2c1/C=C/c1n[nH]c3ccc(cc13)-c1cnn(C)c1O[C@H](C)CN(C(C)C)C2"
> 1000 nM

What do we get for Cc1nn([C@@H]2COC[C@H]2O)c2c1/C=C/c1n[nH]c3ccc(cc13)-c1cnn(C)c1OCCCO2 (single isomer, unassigned) ?
1880 nM

---

# SYSTEM TESTED: EGFR (D770_N771insNPG) (Homo sapiens (Human), UniProt P00533, INS770NPG)
# ASSAY PROCEDURE: HotSpot radiometric kinase assay, EGFR (D770_N771insNPG)
# CONDITION CONTEXT: 10 μM ATP, read-out: EGFR (Δ770_N771insNPG) IC50
# Experimental: Biochemical Assays for Inhibition of Wild-Type and Mutant EGFRs Briefly, specific kinase/substrate pairs along with required cofactors were prepared in reaction buffer; 20 mM Hepes pH 7.5, 10 mM […], 1 mM EGTA, 0.02% Brij35, 0.02 mg/ml BSA, 0.1 mM Na3VO4, 2 mM DTT, 1% DMSO. Compounds were delivered into the reaction, followed […] later by addition of a mixture of ATP (Sigma, St. Louis MO) and ^33P ATP (Perkin Elmer, Waltham MA) to a final concentration of 10 μM. […]
API: label(entry) gives true (1) if the entry's IC50 is strictly smaller than 200 nM; on equality or larger values it gives false (0).

I'd appreciate it if you could check whether CC(C)Oc1nn(CCO)c2c1/C=C/c1n[nH]c3ccc(cc13)-c1cnn(C)c1OC(CF)CN(C)C2 (centres unmarked) has IC50 smaller than 200 nM.
true (1)

One more compound: CC(C)Oc1nn(CCO)c2c1/C=C/c1n[nH]c3ccc(cc13)-c1cnn(C)c1OCC(CF)N(C)C2 (centres unmarked)
false (0)

Also need "C[C@H]1CN(C)Cc2c(c(CN(C)C)nn2CCO)/C=C/c2n[nH]c3ccc(cc23)-c2cnn(C)c2O1" , thanks.
false (0)

Record: "Cc1nn(CCO)c2c1/C=C/c1n[nH]c3ccc(cc13)-c1cnn(C)c1O[C@@H](C)CN(C)C2"
true (1)

What about this compound? "Cc1nn(CCO)c2c1/C=C/c1n[nH]c3cc(Cl)c(cc13)-c1cnn(C)c1O[C@@H](C)CN(C)C2"
true (1)

One more compound: "C[C@H]1CN(C)Cc2onc(C3CC3)c2/C=C/c2n[nH]c3ccc(cc23)-c2cnn(C)c2O1"
false (0)

Now consider "CC(C)Oc1nn(CCO)c2c1/C=C/c1n[nH]c3ccc(cc13)-c1cnn(C)c1O[C@@H](CO)CN(C)C2" and answer again.
true (1)

Cc1c2c(nn1CCN1CCCC1)OCCOC(C)c1c(cnn1C)-c1ccc3[nH]nc(c3c1)/C=C/2 (centres unmarked) ?
false (0)

// next record Cc1nn(CCO)c2c1/C=C/c1n[nH]c3ccc(cc13)-c1cnn(C)c1OC(C1CCC1)CN(C)C2 (centres unmarked)
true (1)

How about this compound: "C[C@H]1CN(C)Cc2c(c(C#N)nn2C)/C=C/c2n[nH]c3ccc(cc23)-c2cnn(C)c2O1"
true (1)

Similarly, "Cc1nn(C)c2c1/C=C/c1n[nH]c3ccc(cc13)-c1cnn(C)c1O[C@@H](C)CN(C1CC1)C2" ?
true (1)

And for "Cc1nn(C)c2c1/C=C/c1n[nH]c3ccc(cc13)-c1cnn(C)c1O[C@@H](C)CN(C1COC1)C2" ?
true (1)

Next entry: "Cc1c2c(nn1CCO)CN(C)C[C@H](C)Oc1c(cnn1C)-c1ccc3[nH]nc(c3c1)/C=C/2"
false (0)

Another compound to look at: "Cc1nn(CCO)c2c1/C=C/c1n[nH]c3ccc(cc13)-c1cnn(C)c1O[C@@H](C)CN(C(C)C)C2"
true (1)

For Cc1nn([C@H]2CNC[C@@H]2O)c2c1/C=C/c1n[nH]c3ccc(cc13)-c1cnn(C)c1OCCCO2 (racemic) then?
true (1)

Also need CCOc1nn(C)c2c1/C=C/c1n[nH]c3cc(F)c(cc13)-c1cnn(C)c1OC1CCCN(C2)C1 (stereo in doubt) , thanks.
false (0)

Try "CCOc1nn(CCO)c2c1/C=C/c1n[nH]c3ccc(cc13)-c1cnn(C)c1O[C@@H](C)CN(C)C2" next.
true (1)

And "CC(C)Oc1nn(CCO)c2c1/C=C/c1n[nH]c3ccc(cc13)-c1cnn(C)c1O[C@@H](C)CN(C)[C@@H]2C" ?
true (1)

Same question, "CCc1nn(CCO)c2c1/C=C/c1n[nH]c3ccc(cc13)-c1cnn(C)c1OCCCO2" this time
false (0)

Same again, this time with "Cc1c2c(nn1CC(C)(C)O)OCCCOc1c(cnn1C)-c1ccc3[nH]nc(c3c1)/C=C/2"
false (0)

Next: "Cc1c2c(nn1[C@H]1C[C@@H](N(C)CCN(C)C)C1)OCCCOc1c(cnn1C)-c1ccc3[nH]nc(c3c1)/C=C/2"
true (1)

Thanks! And "CN1CCC(c2ccc3c(c2)O[C@@H]2CCN(CCOc4c(cnn4C)-c4ccc5[nH]nc(c5c4)/C=C/3)C2=O)CC1" ?
true (1)

Record: "CCc1nn(CCN2CC[C@H](O)C2)c2c1/C=C/c1n[nH]c3ccc(cc13)-c1cnn(C)c1OCCCO2"
false (0)

Then what about the compound "CC(C)Oc1nn(CCO)c2c1/C=C/c1n[nH]c3ccc(cc13)-c1cnn(C)c1OC[C@H](C)N(C1CC1)C2" ?
false (0)

What would you report for "Cc1nn(C)c2c1/C=C/c1n[nH]c3ccc(cc13)-c1c(C)nn(C)c1OCCN(C)C2" ?
false (0)

Can you check "Cc1nn(C)c2c1/C=C/c1n[nH]c3ccc(cc13)-c1cnn(C)c1O[C@@H]1CCCN(C2)C1" next?
true (1)

Entry to check: "Cc1nn(C)c2c1/C=C/c1n[nH]c3ccc(cc13)-c1cnn(C)c1OCCN(C)C2"
false (0)

Next up: "Cn1ncc2c1OCCCCOc1ccccc1/C=C/c1n[nH]c3ccc-2cc13"
false (0)
